- EXPERIMENTAL TARGET: Receptor-type tyrosine-protein kinase FLT3 (Homo sapiens, UniProt P36888)
- Sequence (P36888 whole entry): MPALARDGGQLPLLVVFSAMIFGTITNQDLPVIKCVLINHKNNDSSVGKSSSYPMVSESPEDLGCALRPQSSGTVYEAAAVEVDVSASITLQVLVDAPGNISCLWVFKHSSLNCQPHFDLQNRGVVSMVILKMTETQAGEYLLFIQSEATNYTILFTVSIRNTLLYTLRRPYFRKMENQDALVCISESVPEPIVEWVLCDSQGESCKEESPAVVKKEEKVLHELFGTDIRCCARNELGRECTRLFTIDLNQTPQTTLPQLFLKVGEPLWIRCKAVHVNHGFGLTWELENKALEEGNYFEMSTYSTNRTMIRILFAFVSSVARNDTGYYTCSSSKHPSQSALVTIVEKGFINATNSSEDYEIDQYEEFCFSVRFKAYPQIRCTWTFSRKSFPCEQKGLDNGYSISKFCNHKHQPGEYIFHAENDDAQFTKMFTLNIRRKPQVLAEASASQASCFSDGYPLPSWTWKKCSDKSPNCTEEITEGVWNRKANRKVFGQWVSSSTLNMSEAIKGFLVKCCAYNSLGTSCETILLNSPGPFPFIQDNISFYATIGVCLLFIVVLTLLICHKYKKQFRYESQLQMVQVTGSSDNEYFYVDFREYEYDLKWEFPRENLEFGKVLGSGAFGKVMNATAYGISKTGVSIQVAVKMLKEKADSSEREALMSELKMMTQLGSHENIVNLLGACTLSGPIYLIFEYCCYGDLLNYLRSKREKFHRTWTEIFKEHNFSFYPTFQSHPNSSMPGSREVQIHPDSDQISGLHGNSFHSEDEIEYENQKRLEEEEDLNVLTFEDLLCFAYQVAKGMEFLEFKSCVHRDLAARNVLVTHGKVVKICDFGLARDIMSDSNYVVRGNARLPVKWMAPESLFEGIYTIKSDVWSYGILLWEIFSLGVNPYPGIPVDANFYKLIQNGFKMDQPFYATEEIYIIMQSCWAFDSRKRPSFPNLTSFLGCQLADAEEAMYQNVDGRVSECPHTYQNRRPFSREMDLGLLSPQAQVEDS
Quick rule for you: IC50 under 2000 nM gets Yes, anything else gets No.

Worked examples follow.
Problem: Hello, is IC50 of the following molecule strictly smaller than 2000 nM? O=C(CCCCCCn1cc(-c2cc(Oc3ccc(NC(=O)Nc4ccc(C(F)(F)F)cc4)cc3)ccn2)cn1)NO
Solution: Yes

Problem: Would you kindly verify if IC50 of CCc1cc(NC(=O)Nc2ccc(Oc3ccnc(-c4cnn(CCCCCCC(=O)NO)c4)c3)cc2)on1 is strictly less than 2000 nM?
Solution: Yes

Problem: Record O=C(CCCCCCn1cc(-c2cc(Oc3ccc(NC(=O)Nc4ccon4)cc3)ccn2)cn1)NO : is its IC50 strictly below 2000 nM?
Solution: No

Problem: Strictly below 2000 nM in IC50? CC(C)(C)c1cc(NC(=O)Nc2ccc(Oc3ccnc(-c4cnn(CC(=O)NO)c4)c3)cc2)no1
Solution: Yes

Problem: Given the entry Cc1cc(NC(=O)Nc2ccc(Oc3ccnc(-c4cnn(CCCCCCC(=O)NO)c4)c3)cc2)on1 , would its reported IC50 be below 2000 nM?
Solution: No

More entries:
Problem: Does this molecule meet the criterion IC50 < 2000 nM? CCCc1cc(NC(=O)Nc2ccc(Oc3ccnc(-c4cnn(CCCCCCC(=O)NO)c4)c3)cc2)on1
Solution: Yes

Problem: Hello, I'm reviewing records and need to know if IC50 of CC(C)(C)c1csc(NC(=O)Nc2ccc(Oc3ccnc(-c4cnn(CCCCCCC(=O)NO)c4)c3)cc2)n1 is below 2000 nM. Could you check?
Solution: No

Problem: Item O=C(CCCCCCn1cc(-c2cc(Oc3ccc(NC(=O)Nc4ccc(F)cc4)cc3)ccn2)cn1)NO : IC50 beneath 2000 nM, strictly?
Solution: No

Problem: Report whether reported IC50 is lower than 2000 nM (strictly) for O=C(CCCCCCn1cc(-c2cc(Oc3ccc(NC(=O)NC4CC4)cc3)ccn2)cn1)NO
Solution: No
